Literature roundup of Angiotensin-converting enzyme (Oryctolagus cuniculus) data, read-out pIC50.
Molecular target: Angiotensin-converting enzyme (Oryctolagus cuniculus)
Sequence (P12822 whole entry): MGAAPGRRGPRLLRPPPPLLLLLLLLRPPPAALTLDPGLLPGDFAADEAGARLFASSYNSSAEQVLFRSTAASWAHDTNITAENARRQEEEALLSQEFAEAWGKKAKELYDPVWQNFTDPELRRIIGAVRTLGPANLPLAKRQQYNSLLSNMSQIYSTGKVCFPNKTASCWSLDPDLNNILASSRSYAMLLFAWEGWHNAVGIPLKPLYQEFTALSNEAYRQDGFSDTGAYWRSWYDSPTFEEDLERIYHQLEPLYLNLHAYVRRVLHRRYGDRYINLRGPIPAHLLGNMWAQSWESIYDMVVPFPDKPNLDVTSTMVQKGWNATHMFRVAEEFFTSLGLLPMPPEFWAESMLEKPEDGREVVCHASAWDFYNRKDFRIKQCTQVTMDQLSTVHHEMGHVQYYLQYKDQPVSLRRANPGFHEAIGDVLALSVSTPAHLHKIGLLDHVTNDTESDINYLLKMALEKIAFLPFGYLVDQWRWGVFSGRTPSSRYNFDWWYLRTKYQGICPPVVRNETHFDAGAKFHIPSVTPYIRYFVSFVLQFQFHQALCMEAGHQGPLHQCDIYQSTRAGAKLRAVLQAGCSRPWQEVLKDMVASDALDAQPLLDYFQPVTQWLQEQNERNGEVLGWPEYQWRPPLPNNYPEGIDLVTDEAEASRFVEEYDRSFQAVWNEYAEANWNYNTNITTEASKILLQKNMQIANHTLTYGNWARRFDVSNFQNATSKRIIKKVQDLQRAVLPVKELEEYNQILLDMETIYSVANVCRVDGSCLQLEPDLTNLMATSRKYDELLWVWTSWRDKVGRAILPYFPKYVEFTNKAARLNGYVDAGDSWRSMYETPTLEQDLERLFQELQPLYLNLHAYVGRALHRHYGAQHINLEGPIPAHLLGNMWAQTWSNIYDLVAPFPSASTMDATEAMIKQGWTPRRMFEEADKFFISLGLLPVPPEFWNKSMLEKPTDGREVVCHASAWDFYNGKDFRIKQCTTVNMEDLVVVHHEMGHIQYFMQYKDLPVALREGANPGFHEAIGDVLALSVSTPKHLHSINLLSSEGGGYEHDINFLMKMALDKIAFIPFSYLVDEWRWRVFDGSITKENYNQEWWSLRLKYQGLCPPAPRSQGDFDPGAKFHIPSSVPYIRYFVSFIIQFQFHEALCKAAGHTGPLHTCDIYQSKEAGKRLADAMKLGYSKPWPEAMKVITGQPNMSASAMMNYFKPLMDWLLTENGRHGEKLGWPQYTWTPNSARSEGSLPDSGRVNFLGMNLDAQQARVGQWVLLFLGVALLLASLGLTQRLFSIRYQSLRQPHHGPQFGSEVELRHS
Here pIC50 is given on a logarithmic scale as minus log10 of the concentration in mol/L.

- Compound: "CCSC[C@@H](NC(=O)[C@@H](CS)Cc1ccccc1)C(=O)O"
  Numeric readout: 7.55
- Compound: "CN(C)CCCOC(=O)[C@@H]1Cc2ccccc2N1C(=O)CC[C@@H](NC(=O)OCc1ccccc1)C(=O)O"
  Numeric readout: 7.43
- Compound: "O=C(O)CN1C[C@H](c2cccs2)SC[C@H](N[C@@H](CCc2ccccc2)C(=O)O)C1=O"
  Numeric readout: 7.19
- Compound: "O=C(O)CN1C[C@H](c2ccccc2)CC[C@H](N[C@@H](CCc2ccccc2)C(=O)O)C1=O"
  Numeric readout: 8.37
- Compound: "O=C(O)[C@H](CCc1ccccc1)N[C@H]1CCc2cccc3c2N(C1=O)[C@H](C(=O)O)C3"
  Numeric readout: 8.28

Tell me pIC50 reported for NC(=O)[C@@H]1Cc2ccccc2N1C(=O)CC[C@@H](NC(=O)OCc1ccccc1)C(=O)O
6.80

Tell me pIC50 reported for C[C@H](NP(=O)(O)CCCCc1ccccc1)C(=O)N1CCC[C@H]1C(=O)O
7.92

Tell me pIC50 reported for CCOC(=O)C1=C(C)NC(C)=C(C(=O)OCC)C1c1cccc(OC)c1OCc1cn(CC(=O)Nc2nnc(C(F)(F)F)s2)nn1
6.39

Tell me pIC50 reported for O=C(N[C@H]1CCS[C@H]2CCC[C@@H](C(=O)O)N2C1=O)[C@@H](S)Cc1ccccc1
8.22

Tell me pIC50 reported for CC(CS)C(=O)N(CC(=O)O)Cc1cccs1 (stereo not drawn)
7.26
